Listed here are compounds together with their documented IC50.
assay.procedure: Inhibition of recombinant protein farnesyltransferase-mediated [3H]FPP transfer after 30 mins by scintillation counting
Report only the number, with the unit µg/mL understood.

Which IC50 reading was recorded for the compound C=C(C)[C@@H]1CC[C@]2(CO)CC[C@]3(C)[C@H](CC[C@@H]4[C@@]5(C)CC[C@H](O)C(C)(C)[C@@H]5CC[C@]43C)[C@@H]12 ?
1

Request the reported IC50 associated with C=C(C)[C@@H]1CC[C@]2(C)CC[C@]3(C)[C@H](CC[C@@H]4[C@@]5(C)CC[C@H](O)C(C)(C)[C@@H]5CC[C@]43C)[C@@H]12
65

====

assay.procedure: Inhibition of recombinant protein farnesyltransferase-mediated [3H]FPP transfer after 30 mins by scintillation counting
quantity.kind: IC50

C=C1C(=O)O[C@@H]2C[C@]3(C)CC[C@]4(C)[C@H](CC[C@@H]5[C@@]6(C)CC[C@H](O)C(C)(C)[C@@H]6CC[C@]54C)[C@H]3[C@H]12 [DIHYDRO OCHRACEOLIDE A]    > 100 mg/L
C=C1C(=O)O[C@@H]2C[C@]3(C)CC[C@]4(C)[C@H](CC[C@@H]5[C@@]6(C)CCC(=O)C(C)(C)[C@@H]6CC[C@]54C)[C@H]3[C@H]12 [OCHRACEOLIDE A]    > 100 mg/L

What value of IC50 has been recorded for this entry: CC1(C)C(=O)CC[C@]2(C)[C@H]3CC[C@@H]4[C@H]5[C@H]6[C@@H](C[C@]5(C)CC[C@@]4(C)[C@]3(C)CC[C@@H]12)OC(=O)[C@]61CO1 [20-EPI-OCHRACEOLIDE B]
> 100 mg/L
